src = patent US20180334447A1

System under test: recombinant BACE1 protein (Homo sapiens, UniProt P56817)
Construct: recombinant BACE1 protein in a final concentration of 1 μg/ml
Sequence (P56817 46-501): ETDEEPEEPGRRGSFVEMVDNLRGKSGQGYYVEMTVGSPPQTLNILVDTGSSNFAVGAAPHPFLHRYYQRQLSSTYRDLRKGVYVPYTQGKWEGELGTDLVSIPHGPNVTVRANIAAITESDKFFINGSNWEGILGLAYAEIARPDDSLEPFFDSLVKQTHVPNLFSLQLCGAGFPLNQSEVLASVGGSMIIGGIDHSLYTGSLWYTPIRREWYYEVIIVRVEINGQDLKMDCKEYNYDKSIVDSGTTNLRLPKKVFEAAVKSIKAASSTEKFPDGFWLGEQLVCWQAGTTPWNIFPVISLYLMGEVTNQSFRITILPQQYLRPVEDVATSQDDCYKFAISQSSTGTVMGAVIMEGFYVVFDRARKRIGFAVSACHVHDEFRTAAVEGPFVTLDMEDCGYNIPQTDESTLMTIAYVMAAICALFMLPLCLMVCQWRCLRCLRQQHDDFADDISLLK
Assay name: BACE1 biochemical FRET based assay - Method 1
Assay conditions: BACE1, 120 minutes at room temperature, pH 5.0; read-out: Biochemical FRET based assay - Method 1 pIC50 (converted)
Each entry below carries its reported IC50.
Attribute measured: IC50 (nM)

> print(dat)
                                    compound  reading.unit  measurement.qualifier  experimental.value
 1  CC1(S(=O)(=O)C2CC2)CCC(CF)(c2cc(NC(=O)c3ccc(F)cn3)ccc2F)N=C1N (centres unmarked)            nM                      =                 2.4
 2  COc1cnc(C(=O)Nc2ccc(F)c([C@]3(C)CC[C@](C)(S(C)(=O)=O)C(N)=N3)c2)cn1            nM                      =                77.6
 3  CC(C)S(=O)(=O)C1(C)CCC(CF)(c2cc(NC(=O)c3ccc(F)cn3)ccc2F)N=C1N (single isomer, unassigned) [Compound 34]            nM                      =                3630
 4  CO[C@H]1C[C@@](C)(C#N)C(N)=N[C@]1(C)c1cc(NC(=O)c2cnc(OCF)cn2)ccc1F [Compound 49a]            nM                      =                33.9
 5  C[C@@]1(S(C)(=O)=O)CC[C@@](CF)(c2cc(NC(=O)c3ccc(F)cn3)cc(F)c2F)N=C1N            nM                      =                3.55
 6  COc1cnc(C(=O)Nc2ccc(F)c(C3(C)CCC(C)(C#N)C(N)=N3)c2)cn1 (single isomer, unassigned) [Compound 15]            nM                      =                9.77
 7  COc1cnc(C(=O)Nc2ccc(F)c(C3(C)CCC(C)(C#N)C(N)=N3)c2)cn1 (single isomer, unassigned) [Compound 16]            nM                      =                 257
 8  CC1(S(C)(=O)=O)CCC(CF)(c2cc(NC(=O)c3cnc(OCC(F)F)cn3)ccc2F)N=C1N (centres unmarked)            nM                      =                3.72
 9  Cc1cc(C#N)cnc1C(=O)Nc1ccc(F)c([C@]2(CF)CC[C@@](C)(S(C)(=O)=O)C(N)=N2)c1            nM                      =                1.38
10  COc1cnc(C(=O)Nc2ccc(F)c([C@]3(CF)CC[C@@](C)(C#N)C(N)=N3)c2)cn1            nM                      =                53.7
11  COc1cnc(C(=O)Nc2ccc(F)c([C@@]3(C(F)F)CC[C@](C)(C#N)C(N)=N3)c2)cn1            nM                      >               10000
12  COc1cnc(C(=O)Nc2ccc(F)c([C@]3(C)CC[C@@](C)(S(C)(=O)=O)C(N)=N3)c2)cn1            nM                      =                3.89
13  C[C@]1(S(C)(=O)=O)CC[C@@](CF)(c2cc(NC(=O)c3ccc(F)cn3)ccc2F)N=C1N            nM                      =                 380
14  CC1(S(C)(=O)=O)CCC(CF)(c2cc(NC(=O)c3ncc(Cl)cn3)ccc2F)N=C1N (centres unmarked)            nM                      =                3.63
